All figures here come from paper PMC6073527.

Biological target: Cystathionine γ-lyase (TgCGL) (Toxoplasma gondii, UniProt A0A125YN40)
Construct: gene TGME49_312930; full-length, N-terminal His6 tag (apo-protein)
Sequence (A0A125YN40 entry or part of it): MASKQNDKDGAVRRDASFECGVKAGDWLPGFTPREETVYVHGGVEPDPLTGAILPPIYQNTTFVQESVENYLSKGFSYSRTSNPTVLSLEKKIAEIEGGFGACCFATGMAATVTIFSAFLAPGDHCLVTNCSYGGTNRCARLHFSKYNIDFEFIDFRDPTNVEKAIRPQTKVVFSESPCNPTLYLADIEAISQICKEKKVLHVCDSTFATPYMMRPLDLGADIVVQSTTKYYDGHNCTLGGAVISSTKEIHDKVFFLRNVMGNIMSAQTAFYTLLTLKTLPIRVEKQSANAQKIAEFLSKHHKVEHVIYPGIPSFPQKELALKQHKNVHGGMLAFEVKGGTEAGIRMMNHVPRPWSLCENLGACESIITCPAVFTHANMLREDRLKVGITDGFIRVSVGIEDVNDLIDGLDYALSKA
Assay: intrinsic fluorescence titration of apo-TgCGL (excitation […] nm, emission […] nm)
Assay type: binding
pKd: −log10 of the molar value.
endpoint: pKd

INSERT INTO results (structure_string, target, recorded_measurement) VALUES
  ('Cc1ncc(COP(=O)(O)O)c(C=O)c1O', 'Cystathionine γ-lyase (TgCGL) (Toxoplasma gondii, UniProt A0A125YN40)', 6.77);
